The values you see were collected from PubChem BioAssay AID504652.

Target: D(1A) dopamine receptor (Homo sapiens) (UniProt P21728)
Sequence (P21728 whole entry, looked up): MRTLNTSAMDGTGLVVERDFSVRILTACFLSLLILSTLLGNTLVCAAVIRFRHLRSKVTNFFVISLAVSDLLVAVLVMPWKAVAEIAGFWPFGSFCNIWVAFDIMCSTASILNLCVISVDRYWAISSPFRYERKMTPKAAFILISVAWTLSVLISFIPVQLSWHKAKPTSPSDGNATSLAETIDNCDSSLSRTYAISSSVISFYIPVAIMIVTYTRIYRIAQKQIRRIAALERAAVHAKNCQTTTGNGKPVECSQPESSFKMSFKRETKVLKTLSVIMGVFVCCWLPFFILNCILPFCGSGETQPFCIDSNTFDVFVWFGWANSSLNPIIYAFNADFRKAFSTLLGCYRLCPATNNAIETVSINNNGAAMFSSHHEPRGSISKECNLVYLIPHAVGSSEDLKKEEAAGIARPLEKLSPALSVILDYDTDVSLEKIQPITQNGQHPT
Experiment: Antagonist of Human D 1 Dopamine Receptor: qHTS; note: % is set by controls: 0 for no effect and ±100 for the full control effect
Conditions: HEK293 TREx D1 cells, calcium flux, dopamine EC80; at 10 µM; active compounds read low
Hit rate of the full screen: of about 360,000 compounds, about 11,000 (3.1%) were called active. The sample holds actives, similar compounds and a random draw of the others, so the mix is not that of the screen.
quantity_kind: activity change, negative = inhibition (%)
Please state the figure in %; there is no need to write the unit.

Recorded activity change, negative = inhibition for `Cc1ccccc1C(=O)Nc1nnc(S(=O)(=O)N(C)c2ccc(Cl)cc2)s1` , please? -3.48

Record request: activity change, negative = inhibition value, item `COc1ccc(CCNC(=O)c2ccccc2-c2ccccc2C(=O)O)cc1OC` 0.57

// query activity change, negative = inhibition value for entry `CCCOC(=O)c1c(NC(=O)c2cc3nc(-c4ccc(OC)cc4)cc(C(F)(F)F)n3n2)sc2c1CCCC2` 1.36

Suppose we examine the molecule CCOC(=O)c1ccc(NC(=O)CC2C(=O)N(c3cccc(OC)c3)C(=O)N2C2CCCCC2)cc1 (stereo not given) ; what activity change, negative = inhibition value has been reported? -8.12

Can you share its activity change, negative = inhibition? I mean this molecule: `CCOc1ncccc1C(=O)NCCc1ccc(OC)cc1` 8.92

Requested field: activity change, negative = inhibition. Item: `CCOc1ccc(C(=O)NC(=S)Nc2ccc(N3CCOCC3)c(Cl)c2)cc1[N+](=O)[O-]` -18.8

Query (molecule): `O=C(NNC(=O)c1ccc(-n2cncn2)c([N+](=O)[O-])c1)c1ccccc1` ; field requested: activity change, negative = inhibition -5.21

// activity change, negative = inhibition lookup, key: `Cc1ccccc1OCC(=O)NNC(=O)c1ccc(-n2cncn2)c([N+](=O)[O-])c1` -67.1

Report activity change, negative = inhibition for `COc1ccc(NC(=O)C2=CC(c3ccc(OC)c(OC)c3)=NS(=O)(=O)N2C)cc1` please. -44.8

Which activity change, negative = inhibition is listed for `CCOc1ccccc1C(=O)NCc1ccc2c(c1)CCN2C(=O)c1ccc(F)cc1` ? -20.6

What does the record list as activity change, negative = inhibition for `CC(=O)c1ccc(NC(=O)c2ccc(-n3cncn3)c([N+](=O)[O-])c2)cc1` ? 2.28

Which measured activity change, negative = inhibition value corresponds to `COc1ccc(-c2c(C)c3ccc(O)c(CN4CCN(C)CC4)c3oc2=O)cc1OC` ? -44.5

Need activity change, negative = inhibition of `COc1cccc2[nH]c(C(=O)NCCc3ccccc3)cc12` , thanks. -6.46

# query: activity change, negative = inhibition of entry `COc1ccc2cc(CNc3ccc(OC)c(OC)c3)c(=O)n(CC(=O)Nc3ccccc3F)c2c1` -14.2

Form field: reported activity change, negative = inhibition of `Cc1ccccc1Nc1nc(N)nc(COC(=O)CCC(=O)c2ccc(F)cc2)n1` -23.2

Which value of activity change, negative = inhibition has been reported for CCCc1nn2c(=O)cc(COC(=O)c3ccc(NC(=O)C(C)Oc4ccccc4)cc3)nc2s1 (stereo not given) in the records? 3.83

Name the recorded activity change, negative = inhibition for `CCOC(=O)Cc1ccc(NC(=O)Nc2c[nH]c(=O)[nH]c2=O)cc1` . 0.423

Value lookup for activity change, negative = inhibition; key = `COc1ccc(-c2c(C)c3ccc(O)c(CN4CCCC4)c3oc2=O)cc1OC` 3.24

Would you kindly share the measured activity change, negative = inhibition for `CCC(CC)c1nn2cc(-c3ccccc3)nc2s1` ? 14.7

# lookup: activity change, negative = inhibition of `COc1ccc(S(=O)(=O)N2CCC(C(=O)OCC(=O)c3ccccc3)CC2)cc1[N+](=O)[O-]` -3.94
